- Tested on: LAPC4
- PROCEDURE_SUMMARY: Inhibition of colony formation in human LAPC4 cells at 10 uM incubated for 10 days by crystal violet staining based assay
- Assay type: functional
- TEST_PARAMETERS: LAPC4, 240 h, time 10 day
PROPERTY_NAME: inhibition at 10 µM (%)
Numbers only, in %.

See these solved cases before continuing.
Cn1nc2c(c1-c1ccc(Cl)cc1)C[C@@]1(C)[C@@H](CC[C@@H]3[C@@H]1CC[C@]1(C)C(=O)CC[C@@H]31)C2: 11
N#Cc1ccc(O[C@H]2CC[C@H](NC(=O)c3ccc(N4CCC(CN5CCN(c6cc7c(cc6F)C(=O)N(C6CCC(=O)NC6=O)C7=O)CC5)CC4)nn3)CC2)cc1Cl (stereo not given in full) [BAVDEGALUTAMIDE]: 7
C[C@]12Cc3cnn(-c4ccccc4)c3C[C@@H]1CC[C@@H]1[C@@H]2CC[C@]2(C)[C@@H](O)CC[C@@H]12: 1
Cn1nc2c(c1-c1cccs1)C[C@@]1(C)[C@@H](CC[C@@H]3[C@@H]1CC[C@]1(C)C(=O)CC[C@@H]31)C2: 4
C[C@]12CC[C@H](O)CC1=CC[C@@H]1[C@@H]2CC[C@]2(C)C(c3cccnc3)=CC[C@@H]12: 70
Cc1ccc(-n2nc3c(c2C)C[C@@]2(C)[C@@H](CC[C@@H]4[C@@H]2CC[C@]2(C)C(=O)CC[C@@H]42)C3)cc1: 54
Cc1ccc(-n2ncc3c2C[C@@H]2CC[C@@H]4[C@H](CC[C@]5(C)[C@@H](O)CC[C@@H]45)[C@@]2(C)C3)cc1: 0
C[C@]12Cc3cnn(-c4ccc([N+](=O)[O-])cc4)c3C[C@@H]1CC[C@@H]1[C@@H]2CC[C@]2(C)[C@@H](O)CC[C@@H]12: 15

Go through the items and report each one's inhibition at 10 µM.
1. C[C@]12Cc3cn(-c4ccc(Cl)cc4)nc3C[C@@H]1CC[C@@H]1[C@@H]2CC[C@]2(C)[C@@H](O)CC[C@@H]12
2. C[C@]12Cc3cn(-c4ccc(C#N)cc4)nc3C[C@@H]1CC[C@@H]1[C@@H]2CC[C@]2(C)[C@@H](O)CC[C@@H]12
3. C[C@]12Cc3cnn(-c4ccc(C#N)cc4)c3C[C@@H]1CC[C@@H]1[C@@H]2CC[C@]2(C)[C@@H](O)CC[C@@H]12
4. Cn1nc2c(c1-c1ccccc1)C[C@@]1(C)[C@@H](CC[C@@H]3[C@@H]1CC[C@]1(C)C(=O)CC[C@@H]31)C2
5. Cc1c2c(nn1-c1ccccc1)C[C@@H]1CC[C@@H]3[C@H](CC[C@]4(C)C(=O)CC[C@@H]34)[C@@]1(C)C2
6. Cc1c2c(nn1-c1ccc(C#N)cc1)C[C@@H]1CC[C@@H]3[C@H](CC[C@]4(C)[C@@H](O)CC[C@@H]34)[C@@]1(C)C2

98
76
12
21
54
6

====

Exercise: for every item that follows, state its recorded viability at 20 µM.
- System: CWR22R
- PROCEDURE_SUMMARY: Cytotoxicity against human 22Rv1 cells assessed as cell viability at 20 uM incubated for 72 hrs by resazurin dye based microplate reader assay
- Assay type: functional
- TEST_PARAMETERS: read-out: Activity
Answers are plain numbers, in %.

See these solved cases before continuing.
Cc1c2c(nn1C)C[C@@H]1CC[C@@H]3[C@H](CC[C@]4(C)C(=O)CC[C@@H]34)[C@@]1(C)C2: 103
COc1ccc(-n2nc3c(c2C)C[C@@]2(C)[C@@H](CC[C@@H]4[C@@H]2CC[C@]2(C)C(=O)CC[C@@H]42)C3)cc1: 77

Below: the item to evaluate.
Quick one: viability at 20 µM for `C[C@]12Cc3c(nn(-c4ccccc4)c3-c3ccc(O)cc3)C[C@@H]1CC[C@@H]1[C@@H]2CC[C@]2(C)[C@@H](O)CC[C@@H]12` ?
37
